system.tested: AMP-activated protein kinase, AMPK
test.method.notes: Activation of AMPK in human HepG2 cells assessed as increase in ACC phosphorylation at Ser79 incubated for 1 hr
value.type: EC50 (nM)

Here's what some known entries look like.
COc1ccc(C(=O)C2CCN(C(=O)c3ccc(C(=O)NC4CCN(Cc5ccc(C(=O)N(C)C)cc5)CC4)cn3)CC2)cc1: 1050
N#Cc1ccc(CN2CCC(NC(=O)c3ccc(C(=O)N4CCC(C(=O)c5ccc(-n6cccn6)cc5)CC4)nc3)CC2)cc1: 86
O=C(NC1CCN(Cc2ccccc2)CC1)c1ccc(C(=O)N2CCN(Cc3ccccc3)CC2)cn1: 16

I: N#Cc1ccc(CN2CCC(NC(=O)c3ccc(C(=O)N4CCN(S(=O)(=O)c5ccccc5)CC4)cn3)CC2)cc1
II: N#Cc1ccc(CN2CCC(NC(=O)c3ccc(C(=O)N4CCC(Oc5ccc(F)cc5F)CC4)cn3)CC2)cc1
For I and II , which recorded EC50 is lower? Please reply using the label of the selected record.
II
(II: 4 nM, I: 360 nM)

I: COc1ccc(C(=O)C2CCN(C(=O)c3ccc(C(=O)NC4CCN(Cc5ccc(OC(F)(F)F)cc5)CC4)cn3)CC2)cc1
II: N#Cc1ccc(CN2CCC(NC(=O)c3ccc(C(=O)N4CCC(Oc5ccc(F)cc5F)CC4)nc3)CC2)cc1
III: O=C(NC1CCN(C(=O)c2ccccc2)CC1)c1ccc(C(=O)N2CCN(Cc3ccc(F)cc3)CC2)cn1
IV: O=C(NC1CCN(Cc2ccccc2)CC1)c1ccc(C(=O)NC2CCN(Cc3ccccc3)CC2)nc1
V: N#Cc1ccc(CN2CCC(NC(=O)c3ccc(C(=O)N4CCC(C(=O)c5ccc(-n6cncn6)cc5)CC4)nc3)CC2)cc1
Ranking field: EC50; order: falling. Rank the items, then write their labels in that order.
IV, V, III, II, I

###

IC50: recorded values
system.tested: Cytochrome P450 3A4 (Homo sapiens)
Sequence (P08684 whole entry): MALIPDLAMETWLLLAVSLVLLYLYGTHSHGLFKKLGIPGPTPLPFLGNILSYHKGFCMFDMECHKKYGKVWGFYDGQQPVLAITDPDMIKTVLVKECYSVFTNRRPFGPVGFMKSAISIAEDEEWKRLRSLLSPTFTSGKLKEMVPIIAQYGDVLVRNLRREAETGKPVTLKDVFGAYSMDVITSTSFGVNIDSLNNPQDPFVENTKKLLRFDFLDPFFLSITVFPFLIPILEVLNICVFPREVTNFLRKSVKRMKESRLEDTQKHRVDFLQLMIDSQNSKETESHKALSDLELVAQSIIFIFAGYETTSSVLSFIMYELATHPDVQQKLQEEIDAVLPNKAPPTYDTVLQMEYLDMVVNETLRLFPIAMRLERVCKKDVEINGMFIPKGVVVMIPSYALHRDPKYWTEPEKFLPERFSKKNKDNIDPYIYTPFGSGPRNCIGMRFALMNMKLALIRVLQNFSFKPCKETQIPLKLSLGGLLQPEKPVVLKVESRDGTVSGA
test.method.notes: Inhibition of CYP3A4 (unknown origin) in presence of NADPH
Assay type: ADME

N#Cc1ccc(CN2CCC(NC(=O)c3ccc(C(=O)N4CCC(C(F)c5ccc(F)cc5)CC4)cn3)CC2)cc1 (configuration not stated): 9.8 µM

// lookup IC50 | system=Cytochrome P450 3A4 (Homo sapiens) | key= COc1ccc(OC2CCN(C(=O)c3ccc(C(=O)NC4CCN(Cc5ccc(C#N)cc5)CC4)nc3)CC2)cc1
> 10 µM

// lookup IC50 | system=Cytochrome P450 3A4 (Homo sapiens) | key= COc1ccc(CC2CCN(C(=O)c3ccc(C(=O)NC4CCN(Cc5ccc(C#N)cc5)CC4)nc3)CC2)cc1
> 10 µM

// lookup IC50 | system=Cytochrome P450 3A4 (Homo sapiens) | key= N#Cc1ccc(CN2CCC(NC(=O)c3ccc(C(=O)N4CCC(F)(C(=O)c5ccc(F)cc5)CC4)cn3)CC2)cc1
> 10 µM

// lookup IC50 | system=Cytochrome P450 3A4 (Homo sapiens) | key= N#Cc1ccc(CN2CCC(NC(=O)c3ccc(C(=O)N4CCC(Oc5ccc(C#N)cc5)CC4)cn3)CC2)cc1
3.5 µM

// lookup IC50 | system=Cytochrome P450 3A4 (Homo sapiens) | key= COc1ccc(C(=O)C2CCN(C(=O)c3ccc(C(=O)NC4CCN(Cc5ccc(C#N)cc5)CC4)cn3)CC2)cc1
> 10 µM

// lookup IC50 | system=Cytochrome P450 3A4 (Homo sapiens) | key= N#Cc1ccc(CN2CCC(NC(=O)c3ccc(C(=O)N4CCC(C(=O)c5ccc(F)cc5F)CC4)cn3)CC2)cc1
> 10 µM
